Hello, the source for this data is patent US8415393B2, in case you need it.

Biological target: T1, ExoI Tyr207Ala variant (Escherichia coli, UniProt P04995 1-475)
T1 construct: also called Y207A; Tyr207 variant
T1 sequence: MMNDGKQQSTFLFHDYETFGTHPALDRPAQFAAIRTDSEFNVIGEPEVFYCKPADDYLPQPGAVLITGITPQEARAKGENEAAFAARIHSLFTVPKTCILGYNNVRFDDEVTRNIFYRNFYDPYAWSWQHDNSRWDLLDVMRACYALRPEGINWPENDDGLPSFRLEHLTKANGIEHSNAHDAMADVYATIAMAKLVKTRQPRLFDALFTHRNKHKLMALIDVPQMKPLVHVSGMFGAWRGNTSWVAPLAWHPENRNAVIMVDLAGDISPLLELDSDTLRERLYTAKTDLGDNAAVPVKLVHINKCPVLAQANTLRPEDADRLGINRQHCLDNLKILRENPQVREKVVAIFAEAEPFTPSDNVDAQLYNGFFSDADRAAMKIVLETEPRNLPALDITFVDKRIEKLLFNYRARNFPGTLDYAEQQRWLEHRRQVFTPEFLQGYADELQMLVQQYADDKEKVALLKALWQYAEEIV
Test: fluorescence anisotropy equilibrium binding (Kd,app), ExoI variant titrated into fluorescein-labeled peptide
Where no end group is shown, it is not given here. fluorescein = fluorescein moiety attached to the N-terminus of the peptide (N-terminal fluorescein label)
Assay Readout: Kd

Give a short answer stating reported Kd for fluorescein-WMDFDDDIPF (also called F-SSB-Ct; F-WT) [fluorescein-labeled SSB C-terminal peptide (fluorescein-WMDFDDDIPF)] .
> 1000 nM
